Value source: patent US8865725B2

Target: human mGluR5a receptor (Homo sapiens)
Assay: Cell-based functional assay (Ca2+ mobilization, FDSS) for positive allosteric modulation of mGluR5
Conditions: HEK cells transfected with human mGluR5a (H10H or H12H), potentiation in presence of EC20 glutamate; concentration in mol/L; read-out: pEC50 (converted)
observable: EC50

line.notation: O=c1n(CC2CC2)ccc2nc(COc3ccccc3)cn12
meas.value: 1050 nM

line.notation: Cc1cc2nc(COc3ccccc3)cn2c(=O)n1-c1ccc(F)cc1
meas.value: 1480 nM

Next item in the queue.
Sure, the documented EC50 for "Cc1cc(-n2ccc3nc(COc4ccccc4)cn3c2=O)ncc1F" is 331 nM

---

Target: human mGluR5a receptor (Homo sapiens)
Test: Cell-based functional assay (Ca2+ mobilization, FDSS) for positive allosteric modulation of mGluR5
Conditions: HEK cells transfected with human mGluR5a (H10H or H12H), potentiation in presence of EC20 glutamate; concentration in mol/L; read-out: pEC50 (converted)
Label 1 when EC50 is strictly below 200 nM; at or above that, label 0.

INPUT: Please determine if O=C1N(c2ccc(F)cn2)CCc2nc(COc3ccccc3)cn21 [compound 39] is below 200 nM in terms of EC50.
OUTPUT: 0

INPUT: Please determine if Cc1ccc(-n2ccc3nc(COc4ccccc4)cn3c2=O)nc1 [compound 11] is below 200 nM in terms of EC50.
OUTPUT: 0

INPUT: Please determine if O=C1N(c2cccc(F)c2)CCc2nc(COc3ccccc3)cn21 [compound 32] is below 200 nM in terms of EC50.
OUTPUT: 0

INPUT: Please determine if O=c1n(-c2ccc(F)cc2)ccc2nc(COc3ccccc3)cn12 [compound 3] is below 200 nM in terms of EC50.
OUTPUT: 0

INPUT: Please determine if O=C1N(c2ccc(F)cc2)CCc2nc(COc3ccc(F)cc3)cn21 [compound 35] is below 200 nM in terms of EC50.
OUTPUT: 1

---

EC50 overview
Target: human mGluR5a receptor (Homo sapiens)
Assay: Cell-based functional assay (Ca2+ mobilization, FDSS) for positive allosteric modulation of mGluR5
Details: HEK cells transfected with human mGluR5a (H10H or H12H), potentiation in presence of EC20 glutamate; concentration in mol/L; read-out: pEC50 (converted)
The answer is to be given in nM; state only the numeric part.

These solved cases illustrate the format of a correct answer.
line.notation: Cc1cccc(-n2ccc3nc(COc4ccccc4)cn3c2=O)n1
observable: EC50
units: nM
meas.value: 2190
--
line.notation: Cc1cc(N2CCc3nc(COc4ccccc4)cn3C2=O)ncc1F
observable: EC50
units: nM
meas.value: 269
--
line.notation: O=c1n(-c2ccc(F)cc2)ccc2nc(COc3cccc(F)c3)cn12
observable: EC50
units: nM
meas.value: 214
--
line.notation: CN(C)c1cccc(-n2ccc3nc(COc4ccccc4)cn3c2=O)n1
observable: EC50
units: nM
meas.value: 209

Sure, the documented EC50 for "Cc1cccc(OCc2cn3c(=O)n(-c4ccc(F)cc4)ccc3n2)c1" is 513

Sure, the documented EC50 for "Cc1cccc(OCc2cn3c(n2)CCN(c2ccc(F)cc2)C3=O)c1" is 204

Sure, the documented EC50 for "O=c1n(-c2cccc(C(F)(F)F)c2)ccc2nc(COc3ccc(F)cc3)cn12" is 1170

Sure, the documented EC50 for "O=c1n(-c2ccc(F)c(F)c2)ccc2nc(COc3ccccc3)cn12" is 214

---

Target: UniProt:P41594
Assay: Cell-based functional assay (Ca2+ mobilization, FDSS) for positive allosteric modulation of mGluR5
Conditions: maximum % effect in concentration-response curve, as percent of response to maximally effective glutamate concentration
Label yes when Emax is strictly below 50%; at or above that, label no.

Worked examples follow.
line.notation: Cc1cccc(-n2ccc3nc(COc4ccccc4)cn3c2=O)n1
class: yes
--
line.notation: Cc1c(COc2ccccc2)nc2n1C(=O)N(c1ccc(F)cc1)CC2
class: yes
--
line.notation: Cc1cc(N2CCc3nc(COc4ccccc4)cn3C2=O)ncc1F
class: no
--
line.notation: O=c1n(-c2ccc(F)cn2)ccc2nc(COc3ccccc3)cn12
class: no
--
line.notation: O=c1n(-c2ccc(F)cc2)cc(F)c2nc(COc3ccccc3)cn12
class: no

# ---- query molecule ----
INPUT: Please determine if "Cc1cccc(OCc2cn3c(=O)n(-c4ccc(F)cc4)ccc3n2)c1" is below 50% in terms of Emax.
OUTPUT: yes

---

Biological target: human mGluR5a receptor (Homo sapiens, UniProt P41594)
Sequence (P41594 21-1180 isoform P41594-2 limits assumed): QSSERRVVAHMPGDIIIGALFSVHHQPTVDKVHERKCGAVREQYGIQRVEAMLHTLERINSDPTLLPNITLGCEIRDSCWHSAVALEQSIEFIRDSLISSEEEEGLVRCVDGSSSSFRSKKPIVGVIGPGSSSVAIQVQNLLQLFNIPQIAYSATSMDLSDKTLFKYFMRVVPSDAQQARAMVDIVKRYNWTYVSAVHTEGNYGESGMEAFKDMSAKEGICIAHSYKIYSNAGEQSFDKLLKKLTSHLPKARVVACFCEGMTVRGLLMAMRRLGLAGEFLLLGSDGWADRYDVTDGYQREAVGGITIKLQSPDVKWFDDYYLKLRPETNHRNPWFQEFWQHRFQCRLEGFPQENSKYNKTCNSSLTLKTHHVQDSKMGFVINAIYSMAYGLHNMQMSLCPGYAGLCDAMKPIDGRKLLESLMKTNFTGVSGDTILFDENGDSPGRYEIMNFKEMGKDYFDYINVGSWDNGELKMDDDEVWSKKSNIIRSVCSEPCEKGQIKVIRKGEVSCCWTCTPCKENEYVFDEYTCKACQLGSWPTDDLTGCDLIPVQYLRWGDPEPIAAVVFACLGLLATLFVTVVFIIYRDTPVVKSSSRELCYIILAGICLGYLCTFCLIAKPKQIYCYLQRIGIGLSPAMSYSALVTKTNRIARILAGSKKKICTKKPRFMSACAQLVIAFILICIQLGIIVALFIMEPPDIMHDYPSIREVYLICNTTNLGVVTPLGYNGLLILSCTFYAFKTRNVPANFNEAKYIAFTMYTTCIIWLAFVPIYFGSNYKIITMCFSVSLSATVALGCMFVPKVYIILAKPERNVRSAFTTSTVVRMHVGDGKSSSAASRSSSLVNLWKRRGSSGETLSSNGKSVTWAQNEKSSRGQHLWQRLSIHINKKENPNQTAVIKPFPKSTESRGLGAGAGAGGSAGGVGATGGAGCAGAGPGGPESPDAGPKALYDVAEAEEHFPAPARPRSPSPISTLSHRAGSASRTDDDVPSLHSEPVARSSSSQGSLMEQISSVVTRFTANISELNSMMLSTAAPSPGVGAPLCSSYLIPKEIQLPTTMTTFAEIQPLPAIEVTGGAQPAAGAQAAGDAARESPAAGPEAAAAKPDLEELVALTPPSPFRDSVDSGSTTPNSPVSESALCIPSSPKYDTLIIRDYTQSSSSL
Assay: Cell-based functional assay (Ca2+ mobilization, FDSS) for positive allosteric modulation of mGluR5
Settings: EC50 (nM), HEK cells transfected with human mGluR5a (H10H or H12H), potentiation in presence of EC20 glutamate
EC50 overview
Could you give the number and then its unit, please?

These solved cases illustrate the format of a correct answer.
line.notation: O=c1n(CC2CC2)ccc2nc(COc3ccccc3)cn12
EC50: 1100 nM
//
line.notation: O=c1n(-c2ccc(F)c(F)c2)ccc2nc(COc3ccccc3)cn12
EC50: 228 nM
//
line.notation: O=c1n(-c2ccc(F)cc2)ccc2nc(COc3cccc(F)c3)cn12
EC50: 224 nM
//
line.notation: O=C1N(c2cccc(F)c2)CCc2nc(COc3ccccc3)cn21
EC50: 226 nM

Sure, the documented EC50 for "O=c1n(-c2cccc(F)c2)ccc2nc(COc3ccccc3)cn12" is 525 nM

---

melting point overview

These solved cases illustrate the format of a correct answer.
line.notation: O=c1n(-c2cccc(C(F)(F)F)c2)ccc2nc(COc3ccc(F)cc3)cn12
melting point: > 300 °C
//
line.notation: O=c1n(-c2ccc(F)cc2)ccc2nc(COc3cccnc3)cn12
melting point: > 300 °C

Next item in the queue.
Sure, the documented melting point for "Cc1cccc(-n2ccc3nc(COc4ccccc4)cn3c2=O)n1" is > 300 °C

---

Molecular target: UniProt P41594
Assay: Cell-based functional assay (Ca2+ mobilization, FDSS) for positive allosteric modulation of mGluR5
Settings: HEK cells transfected with human mGluR5a (H10H or H12H), potentiation in presence of EC20 glutamate; read-out: EC50
EC50 overview

line.notation: N#Cc1ccc(OCc2cn3c(=O)n(-c4cccc(C(F)(F)F)c4)ccc3n2)cc1
EC50: > 10 µM
//
line.notation: O=c1n(-c2ccc(F)cc2)ccc2nc(COc3ccccc3)c(Cl)n12
EC50: > 30.2 µM
//
line.notation: O=c1[nH]ccc2nc(COc3ccccc3)cn12
EC50: > 30.2 µM
//
line.notation: Cc1cc2nc(COc3ccccc3)cn2c(=O)n1-c1ccc(F)cc1
EC50: 1.86 µM

Sure, the documented EC50 for "Cc1c(COc2ccccc2)nc2n1C(=O)N(c1ccc(F)cc1)CC2" is > 30.2 µM

Sure, the documented EC50 for "O=c1n(-c2ccc(F)cc2)ccc2nc(COc3cccnc3)cn12" is > 30.2 µM

Sure, the documented EC50 for "Cc1ccc(N2CCc3nc(COc4ccccc4)cn3C2=O)nc1" is 0.468 µM

Sure, the documented EC50 for "Cc1ccnc(-n2ccc3nc(COc4ccccc4)cn3c2=O)c1" is 8.32 µM

---

Biological target: human mGluR5a receptor (Homo sapiens, UniProt P41594)
Experiment: Cell-based functional assay (Ca2+ mobilization, FDSS) for positive allosteric modulation of mGluR5
Details: maximum % effect in concentration-response curve, as percent of response to maximally effective glutamate concentration
observable: Emax (%)
The answer is to be given in %; state only the numeric part.

compound: O=c1n(CC2CC2)ccc2nc(COc3ccccc3)cn12 [compound 17]
observable: Emax
meas.value: 51

compound: Cc1cc2nc(COc3ccccc3)cn2c(=O)n1-c1ccc(F)cc1 [compound 28]
observable: Emax
meas.value: 49

Next item in the queue.
Sure, the documented Emax for Cc1ccnc(-n2ccc3nc(COc4ccccc4)cn3c2=O)c1 [compound 15] is 51
